system: HEK293T (UBE3A T485A transfected, BAR Wnt reporter); test: Wnt reporter firefly/Renilla luciferase ratio relative to plate median (fold (linear ratio)); higher = more Wnt/beta-catenin reporter activation; conditions: concentration: 0.1 uM; 24 h
The full ranking holds about 1,100 compounds; the median of “Wnt reporter firefly/Renilla luciferase ratio relative to plate median” is about 1.1, and the highest 2% start at about 1.6. This excerpt belongs to a sample that is enriched for the highest values.
measured.property: Wnt reporter firefly/Renilla luciferase ratio

Q: Item under review: O=C1c2c(O)cccc2Cc2cccc(O)c21 . Reported Wnt reporter firefly/Renilla luciferase ratio?
Ans: 0.825

Q: What do you get for O=N[O-].[Na+] [Sodium nitrite] ?
Ans: 1.13

Q: Quick one: CC#C[C@]1(O)CC[C@H]2[C@@H]3CCC4=CC(=O)CCC4=C3[C@@H](c3ccc(N(C)C)cc3)C[C@@]21C
Ans: 0.957

Q: Now try Cc1oc2c(NC(=O)c3c(Cl)cccc3Cl)cccc2c1C(C)(C)O .
Ans: 1.01

Q: Can you handle CN(C)C(=O)NC1(c2ccccc2)CCN(CCC[C@@]2(c3ccc(Cl)c(Cl)c3)CCCN(C(=O)c3ccccc3)C2)CC1 next?
Ans: 1.08

Q: Next entry: S=C([S-])NCCNC(=S)[S-].S=C([S-])NCCNC(=S)[S-].[Mn+2].[Zn+2]
Ans: 0.999

Q: Here is the next molecule: CC1(C)C(=O)N(Br)C(=O)N1Br
Ans: 0.79

Q: Moving on to the next molecule: Cc1cnc(-c2cnc(NCCNc3ccc(C#N)cn3)nc2-c2ccc(Cl)cc2Cl)[nH]1
Ans: 1.5

====

tested on: HEK293T (UBE3A T485A transfected, BAR Wnt reporter); experiment: Wnt reporter firefly/Renilla luciferase ratio relative to plate median (fold (linear ratio)); higher = more Wnt/beta-catenin reporter activation; settings: concentration: 0.01 uM; 24 h
Whole data set: some 1,100 compounds, median “Wnt reporter firefly/Renilla luciferase ratio relative to plate median” near 1.1, cut for the highest 2% near 1.6. Shown is part of a subset that was picked to be rich in the highest values.
Decide by Wnt reporter firefly/Renilla luciferase ratio: equal to or exceeding 1 means true, less means false.

Q: Threshold query (Wnt reporter firefly/Renilla luciferase ratio >= 1) on CCCC(CCC)C(=O)O
Ans: true

Q: Another molecule: NC(CCCP(=O)(O)O)C(=O)O (racemic)
Ans: true

Q: Try the molecule COc1ccc(CC(N)C(=O)NC2C(CO)OC(n3cnc4c(N(C)C)ncnc43)C2O)cc1 (stereo not drawn)
Ans: false

Q: Subsequent entry: N#CSCSc1nc2ccccc2s1
Ans: false

Q: Can you check CC[C@]1(O)C[C@H]2C[N@](CCc3c([nH]c4ccccc34)[C@@](C(=O)OC)(c3cc4c(cc3OC)N(C=O)[C@H]3[C@@](O)(C(=O)OC)[C@H](OC(C)=O)[C@]5(CC)C=CCN6CC[C@]43[C@@H]65)C2)C1 next?
Ans: false

Q: Then what about the molecule CCCCOC(=O)[C@@H](C)Oc1ccc(Oc2ccc(C(F)(F)F)cn2)cc1 ?
Ans: false

Q: Also CC(C)(c1ccc(O)cc1)c1ccc(O)cc1 ?
Ans: true

Q: Likewise for CCOC(=O)C(C)Oc1ccc(Oc2nc3ccc(Cl)cc3o2)cc1 (stereo not drawn) ?
Ans: true
